From: patent US20260116991A1

target-desc: T1, human GPC3-His protein (human, UniProt P51654 25-559)
T1 construct: Bought protein; also called human GPC3 protein; not shown: His tag
procedure-summary: ELISA, coated human GPC3, antibody 1 nM;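 further: antigen coated at 1 µg/mL on 96-well plates, antibody bound for 2 h at 37 °C, detected with HRP-labeled secondary antibody and TMB, absorbance read at 450 nm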

[
  {
    "binder": "F1.115.8 human-murine chimeric antibody (antibody, human IgG1, kappa, V domains shown) VH: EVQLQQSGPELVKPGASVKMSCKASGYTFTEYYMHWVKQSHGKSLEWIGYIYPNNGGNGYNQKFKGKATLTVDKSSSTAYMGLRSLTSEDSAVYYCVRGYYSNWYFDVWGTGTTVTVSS VL: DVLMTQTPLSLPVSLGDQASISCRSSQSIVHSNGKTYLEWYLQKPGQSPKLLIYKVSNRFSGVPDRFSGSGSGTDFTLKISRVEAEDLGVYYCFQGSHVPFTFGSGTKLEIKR",
    "OD450 nm": "1.83 OD450"
  },
  {
    "binder": "F1.153.1 human-murine chimeric antibody (antibody, human IgG1, kappa, V domains shown) VH: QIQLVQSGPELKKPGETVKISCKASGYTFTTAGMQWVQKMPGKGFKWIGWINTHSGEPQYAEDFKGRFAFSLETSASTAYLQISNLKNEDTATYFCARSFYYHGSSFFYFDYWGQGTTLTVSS VL: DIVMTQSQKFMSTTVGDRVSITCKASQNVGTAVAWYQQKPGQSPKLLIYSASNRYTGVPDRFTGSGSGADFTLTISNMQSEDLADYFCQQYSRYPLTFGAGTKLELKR",
    "OD450 nm": "1.56 OD450"
  },
  {
    "binder": "F2.39.2 human-murine chimeric antibody (antibody, human IgG1, kappa, V domains shown) VH: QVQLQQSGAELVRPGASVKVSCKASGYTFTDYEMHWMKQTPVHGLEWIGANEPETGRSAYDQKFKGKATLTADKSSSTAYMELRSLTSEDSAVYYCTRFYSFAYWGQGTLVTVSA VL: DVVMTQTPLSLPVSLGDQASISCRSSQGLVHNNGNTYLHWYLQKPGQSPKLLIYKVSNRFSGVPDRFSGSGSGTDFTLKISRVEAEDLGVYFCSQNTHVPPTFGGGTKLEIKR",
    "OD450 nm": "2.21 OD450"
  },
  {
    "binder": "F1.9.19 human-murine chimeric antibody (antibody, human IgG1, kappa, V domains shown) VH: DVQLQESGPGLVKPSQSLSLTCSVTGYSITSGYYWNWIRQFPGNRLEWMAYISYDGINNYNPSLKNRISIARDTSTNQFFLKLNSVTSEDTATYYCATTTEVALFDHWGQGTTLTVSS VL: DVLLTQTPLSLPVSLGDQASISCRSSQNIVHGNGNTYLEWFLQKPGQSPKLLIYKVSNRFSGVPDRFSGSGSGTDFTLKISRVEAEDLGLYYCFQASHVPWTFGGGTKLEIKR",
    "OD450 nm": "1.6 OD450"
  },
  {
    "binder": "F2.154.1 human-murine chimeric antibody (antibody, human IgG1, kappa, V domains shown) VH: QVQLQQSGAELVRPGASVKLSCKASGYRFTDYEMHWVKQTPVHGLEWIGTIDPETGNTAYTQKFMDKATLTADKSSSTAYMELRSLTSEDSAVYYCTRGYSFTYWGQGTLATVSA VL: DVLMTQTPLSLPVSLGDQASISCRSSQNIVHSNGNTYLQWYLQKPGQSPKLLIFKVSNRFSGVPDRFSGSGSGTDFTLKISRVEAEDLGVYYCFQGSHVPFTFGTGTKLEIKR",
    "OD450 nm": "2.31 OD450"
  }
]
